# target desc: human Estrogen receptor alpha (ERα) (Homo sapiens)
# Construct: expressed in transfected cells; host or cells: GeneBLAzer ER-α-UAS-bla GripTite 293 cells (stably integrated)
# Sequence (P03372 311-547 limits assumed): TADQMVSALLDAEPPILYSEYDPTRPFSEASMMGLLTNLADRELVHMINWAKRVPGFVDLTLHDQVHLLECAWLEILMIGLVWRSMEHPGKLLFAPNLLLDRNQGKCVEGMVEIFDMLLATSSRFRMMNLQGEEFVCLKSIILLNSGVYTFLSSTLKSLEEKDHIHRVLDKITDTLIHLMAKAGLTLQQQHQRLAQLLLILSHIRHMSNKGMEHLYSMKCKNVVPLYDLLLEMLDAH
# procedure text: GeneBLAzer Cell-Based Nuclear Receptor Assay (beta-lactamase reporter), ER-α-UAS-bla GripTite 293 cells
# assay context: estrogen agonist activity on ERα cells; read-out: EC50 value
pEC50: −log10 of the molar value.
reported property: pEC50

compound="Oc1cccc2c(O)cccc12 [1,5-NDO, 1,5 Naphthalene diol]" target_desc="human Estrogen receptor alpha (ERα) (Homo sapiens)" reported_property=pEC50 experimental_result="≤ 4.52"
compound="Oc1cc2ccccc2cc1O [2,3-NDO, 2,3 Napthalene diol]" target_desc="human Estrogen receptor alpha (ERα) (Homo sapiens)" reported_property=pEC50 experimental_result="≤ 4.52"

Source listed as patent US20250223404A1.
